Data provenance is ChEMBL document CHEMBL1148599.

Record form. Attribute: log10 of GI50. Fill in for each entry.
# System: KM12
# experimental_protocol: Antiproliferative activity against human colon cancer cell line KM12
# Assay type: functional
Form field - Quantity: GI50; Unit: µM; Scale: log10

Q: Give a short answer stating reported log10 of GI50 for COCOc1ccc(-c2nc3cc(F)ccc3s2)cc1OC .
A: 1.28

Q: Note log10 of GI50 for the compound shown: CCOc1cc(-c2nc3cc(F)ccc3s2)ccc1OC
A: 0.73

Q: Provide log10 of GI50 value for the following compound: COc1ccc(-c2nc3cc(F)ccc3s2)cc1OC
A: -0.54

Q: Give the reported log10 of GI50 for this compound. COc1ccc(-c2nc3cc(F)ccc3s2)c(OC)c1OC
A: 1.15

Q: Identify log10 of GI50 associated with the compound COc1ccc(-c2nc3cc(F)ccc3s2)cc1Br
A: 0.83

Q: Tell us which log10 of GI50 value is on record for COc1ccc(-c2nc3cc(Cl)ccc3s2)cc1OC
A: 1.09

Q: Please look at this compound and report its log10 of GI50: COc1ccc(-c2nc3c(F)cccc3s2)cc1OC
A: -0.07

Q: Let me know recorded log10 of GI50 for Oc1ccc(-c2nc3cc(F)ccc3s2)cc1O , thanks.
A: 1.11

Q: Please give measured log10 of GI50 of the following entry: COc1ccc(-c2nc3cc(F)ccc3s2)cc1
A: 1.39

Q: Return value of log10 of GI50 for input COc1ccc(-c2nc3cc(F)ccc3s2)cc1I , no commentary.
A: 0.84

Q: Provide log10 of GI50 value for the following compound: COc1cc(-c2nc3cc(F)ccc3s2)cc(OC)c1OC
A: 1.11

Q: State its log10 of GI50 for this compound: Fc1ccc2sc(-c3ccc4c(c3)OCO4)nc2c1
A: 1.40

Q: Name the recorded log10 of GI50 of the item COc1ccc(-c2nc3ccc(F)cc3s2)cc1OC in your answer.
A: 1.38
